- Test system: HCT-116
- assayDetails: NCI tumour cell line growth inhibition, 48 h
Calls of active or inactive are those of the source. No stated cut-off is given here; in the data, active = GI50 up to about 1.1 µM and inactive = higher.
For each entry below, report its GI50 value.

Inquiry: Which GI50 is reported for this compound? CC(C)(Br)C(=O)N1CCN(C(c2ccccc2)c2ccccc2)CC1
Reply text: 32.2 µM (inactive)

Inquiry: Okay, and CCOC(=O)c1sc2nc(SC)nc3c2c1N=CN3c1ccc(Br)cc1 ?
Reply text: > 100 µM (inactive)

Inquiry: Note, next up: CC1(C)CCC[C@@]2(C)C1CC[C@H]1CC(O)C3(C)CCC12C3 (stereo partly specified)
Reply text: 17.3 µM (inactive)

Inquiry: Note, next up: C[N+]1(CCN[N+]2(C)CCCCC2)CCc2ccccc2C1 (stereo unspecified)
Reply text: > 100 µM (inactive)

Inquiry: Param item: CSc1ccc(/C=C/c2ccnc3ccccc23)cc1
Reply text: 10.5 µM (inactive)

Inquiry: Can you check CC(=O)OCC(=O)OC[C@H](OCc1ccccc1)[C@@H]1[C@H](OC(C)=O)C(=O)N1Cc1ccccc1 next?
Reply text: > 100 µM (inactive)
